- assayed target: CLK2 kinase (Homo sapiens)
- assay method text: CLK2 kinase activity assay (Z-lyte FRET)
- stated conditions: Z-lyte Ser/Thr 6 peptide, 60 μM ATP, 1 h at room temperature
pEC50: −log10 of the molar value.
Quick list: pEC50 per entry.
measured metric: pEC50

In [3]: df
Out[3]:
                                   compound   val
0  c1cncc(-c2cc3c(-c4nc5c(-c6cccnc6)nccc5[nH]4)n[nH]c3cn2)c1  7.96
1  Fc1cccc(-c2cncc3[nH]c(-c4n[nH]c5ccc(-c6cncc(CN7CCC(F)(F)C7)c6)cc45)nc23)c1 [compound 142]  7.68
2  Cc1ccncc1-c1ccc2[nH]nc(-c3cc4ccncc4[nH]3)c2c1  9.00
3  O=C(Nc1cccnc1)c1n[nH]c2ccc(-c3cncc(CN4CC(CO)(CO)C4)c3)cc12  8.70
4  CN1CCC(Oc2ccc(NC(=O)c3n[nH]c4cc(F)c(-c5cnn(C)c5)cc34)cn2)CC1  9.00
5  Cn1cc(-c2cnc3[nH]nc(-c4cc5cccnc5[nH]4)c3c2)cn1  8.52
6  NC1CN(c2cc(C(=O)Nc3cc4cc(-c5cnco5)ccc4cn3)ccn2)C1  8.40
7  CCCCC(=O)Nc1cncc(-c2cc3c(-c4cc5cnccc5[nH]4)n[nH]c3cn2)c1  8.52

----------
- assayed target: CLK2 kinase (Homo sapiens, UniProt P49760)
- Sequence (P49760 whole entry): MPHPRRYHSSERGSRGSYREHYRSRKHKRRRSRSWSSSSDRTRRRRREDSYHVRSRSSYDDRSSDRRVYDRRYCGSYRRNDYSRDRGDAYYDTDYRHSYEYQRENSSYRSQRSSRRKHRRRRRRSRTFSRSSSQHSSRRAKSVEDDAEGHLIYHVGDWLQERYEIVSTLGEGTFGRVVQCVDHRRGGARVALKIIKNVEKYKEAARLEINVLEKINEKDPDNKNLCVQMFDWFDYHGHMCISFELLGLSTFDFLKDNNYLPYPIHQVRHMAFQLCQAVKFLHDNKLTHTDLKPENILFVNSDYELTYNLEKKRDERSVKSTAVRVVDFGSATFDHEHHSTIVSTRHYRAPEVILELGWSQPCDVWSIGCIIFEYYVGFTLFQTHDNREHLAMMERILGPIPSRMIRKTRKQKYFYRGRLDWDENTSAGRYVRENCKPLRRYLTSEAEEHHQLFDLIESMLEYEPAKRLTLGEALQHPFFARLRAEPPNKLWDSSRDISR
- assay method text: CLK2 kinase activity assay (Z-lyte FRET)
- stated conditions: Z-lyte Ser/Thr 6 peptide, 60 μM ATP, 1 h at room temperature
pEC50: −log10 of the molar value.
Quick list: pEC50 per entry.
measured metric: pEC50

>>> print(df.to_string())
                                   compound   val
0  Cc1n[nH]c2ccc(-c3cncc(NN4CCNCC4)n3)cc12 [compound 41]  9.00
1  CS(=O)(=O)NCc1cc(F)cc(-c2cncc3[nH]c(-c4n[nH]c5ccc(-c6cncc(NC(=O)C7CC7)c6)nc45)cc23)c1 [compound 526]  8.40
2  c1cncc(-c2ccc3[nH]nc(-c4nc5c(-c6cccnc6)cncc5[nH]4)c3c2)c1 [compound 178]  8.30
3  CN1CCN(c2nccc3[nH]c(-c4n[nH]c5ccc(-c6cncc(CN7CCCCC7)c6)nc45)cc23)CC1 [compound 496]  8.22
4  CN1CCC(n2cc(C(=O)Nc3cc4cc(-c5cncc6[nH]ccc56)ccc4cn3)cn2)CC1 [compound 604]  8.70
5  O=C(Nc1c[nH]nc1-c1nc2c(-c3cccc(F)c3)cccc2[nH]1)c1cccnc1 [compound 15]  8.70
6  CN(C)Cc1cncc(-c2ccc3[nH]nc(-c4cc5c(-c6cccnc6)cccc5[nH]4)c3n2)c1 [compound 368]  8.40

----------
- assayed target: CLK2 kinase (Homo sapiens, UniProt P49760)
- assay method text: CLK2 kinase activity assay (Z-lyte FRET);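 also: FRET read-out as coumarin to fluorescein emission ratio, unphosphorylated peptide as 0% and phosphorylated peptide as 100% controls, duplicate reactions, non-linear regression fit of dose-response curves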
- stated conditions: Z-lyte Ser/Thr 6 peptide, 60 μM ATP, 1 h at room temperature
measured metric: EC50 (nM)

                                   molecule  val
0  O=C(Nc1cncc(-c2ccc3[nH]nc(-c4cc5c(-c6ccccc6F)nccc5[nH]4)c3c2)c1)C1CCCC1 [compound 331]   15
1  O=C(Nc1cccnc1)c1n[nH]c2ccc(-c3cncc(CN4CCS(=O)(=O)CC4)c3)cc12 [compound 100]    1
2  Cc1cc(-c2ccc3[nH]nc(C(=O)Nc4ccc(OC5CCN(C)CC5)cc4)c3c2)sn1 [compound 117]    2
3  Nc1cncc(-c2ccc3[nH]nc(-c4cc5c(-c6ccccc6F)ccnc5[nH]4)c3c2)c1 [compound 320]    9
4  CCC(=O)Nc1cncc(-c2ccc3[nH]nc(-c4cc5c(-c6cc(F)cc(CNS(C)(=O)=O)c6)cncc5[nH]4)c3c2)c1 [compound 517]    8
5  CCNCc1cncc(-c2ccc3[nH]nc(-c4nc5c(-c6cc(F)cc(NCCN(C)C)c6)ccnc5[nH]4)c3n2)c1 [compound 286]    3
6  CCNCc1cncc(-c2cc3c(-c4nc5c(-c6ccsc6)nccc5[nH]4)n[nH]c3cn2)c1 [compound 249]    1
7  Cc1ncc(-c2cnc3[nH]nc(-c4nc5c(-c6cccc(F)c6)nccc5[nH]4)c3c2)n1C [compound 159]    1
